Reported log10 H2 permeability values follow for various molecules
Field: value | Transform: log10 | Quantity: H2 permeability | Unit: Barrer

Solved cases below.
*c1cccc(N2C(=O)c3ccc(C(c4ccc5c(c4)C(=O)N(*)C5=O)(C(F)(F)F)C(F)(F)F)cc3C2=O)c1 (repeat unit): 1.55
*c1c(C)cc(-c2cc(C)c(N3C(=O)c4ccc(C(=O)Oc5ccc(C(c6ccc(OC(=O)c7ccc8c(c7)C(=O)N(*)C8=O)cc6)(C(F)(F)F)C(F)(F)F)cc5)cc4C3=O)c(C)c2)cc1C (repeat unit): 1.58
*C(=C(*)c1ccc2c(c1)C(C)(C)c1ccccc1-2)c1cc(F)cc(F)c1 (repeat unit): 3.70
*Oc1cc2c(cc1O*)C1(CC2(C)C)CC(C)(C)c2cc3oc4cc5c(=O)n(-c6c(C)c(C)c(N7C(=O)c8cc(*)c(*)cc8C7=O)c(C)c6C)c(=O)c5cc4oc3cc21 (repeat unit): 2.56
*C(=C(*)c1ccc2c(c1)C(C)(C)CCC2(C)C)c1ccccc1 (repeat unit): 3.89

Which log10 H2 permeability value belongs to *c1ccc(Oc2ccc(N3C(=O)c4ccc(Oc5ccc(Oc6ccc7c(c6)C(=O)N(*)C7=O)cc5)cc4C3=O)cc2)cc1 (repeat unit) ?
0.60
